# credit: paper PMC5403950

# Tested on: peripheral blood mononuclear cells (PBMC)
# test description: Cytotoxicity on peripheral blood mononuclear cells (MTT)
# Type: cell-based, human
# condition notes: PHA 10 μg mL−1, 48 h, confidence limits in brackets
quantity kind: IC50 (µM)
Write the number in µM without appending the unit.

Give its IC50 value. Item: COc1cc([C@H]2OC[C@]3(OC(C)=O)[C@@H](c4ccc(O)c(OC)c4)OC[C@H]23)ccc1O [Compound 16, 1-acetoxy-(+)-pinoresinol]
103
